Attribution: the supplement of paper PMC12669032

tested on: Bacteroides clarus; test: growth AUC relative to DMSO control (median of replicates) (fraction); higher = more growth (less inhibition), active = hit call of the paper; details: 20 µM; 24 h;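 active = AUC reduced over 20% with Padj below 0.05 in at least 2 of 3 replicates; inactive = otherwise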
Pick one: y (active), n (inactive)

Prompt: Hello, I am checking results. What call was entered for Nc1c(Cl)c(Cl)c(Cl)c(Cl)c1Cl ?
Completion: n

Prompt: Per the assay record, what outcome was assigned to CCN(C(=O)n1nnn(-c2ccccc2Cl)c1=O)C1CCCCC1 ?
Completion: y

Prompt: Called result for C=CCC1=C(C)C(OC(=O)C2C(C=C(C)C)C2(C)C)CC1=O (stereo not given)
Completion: n

Prompt: Please share the test call associated with CC1(C)[C@H](C(=O)O[C@H](C#N)c2cccc(Oc3ccccc3)c2)[C@@H]1C=C(Br)Br .
Completion: n

Prompt: Each compound tested received a call. Report the one for O=C(NC(=O)c1c(F)cccc1F)Nc1cc(Cl)c(OC(F)(F)C(F)F)c(Cl)c1 .
Completion: n

====

test system: Escherichia coli ED1a; assay: growth AUC relative to DMSO control (median of replicates) (fraction); higher = more growth (less inhibition), active = hit call of the paper; details: 20 µM; 24 h
For each record, write down the corresponding growth AUC.
Write no unit; give the number alone.

Prompt: Please report the recorded growth AUC for CNC(=O)Oc1cc(C)c(S(C)=O)c(C)c1 (stereo not drawn) .
Completion: 1.01

Prompt: Which value of growth AUC has been reported for CCOP(=S)(OCC)SCCSCC in the records?
Completion: 1.01

Prompt: Would you mind telling me what growth AUC value was observed for ClC1=C(Cl)[C@]2(Cl)[C@@H]3[C@@H]4C[C@@H]([C@H]5O[C@@H]45)[C@@H]3[C@@]1(Cl)C2(Cl)Cl ?
Completion: 0.977

Prompt: // returns reported growth AUC for input COC(=O)c1cc(Oc2ccc(Cl)cc2Cl)ccc1[N+](=O)[O-]
Completion: 0.985

Prompt: If you can, please state the reported growth AUC value of ClCC(Br)CBr (stereo not drawn) .
Completion: 0.985

Prompt: Look up growth AUC: CCOC(=O)/C=C(C)/C=C/C[C@@H](C)CCCC(C)C
Completion: 1

Prompt: Can you share its growth AUC? I mean this compound: CCCCCCCC(=O)Oc1c(I)cc(C#N)cc1I
Completion: 0.985

Prompt: Returns the measured growth AUC for the input compound. Input: COCC(=O)N(c1c(C)cccc1C)N1CCOC1=O
Completion: 0.975

Prompt: Which measured growth AUC value corresponds to CCOP(=O)(NC(C)C)Oc1ccc(S(C)=O)c(C)c1 (stereo not drawn) ?
Completion: 1.03

Prompt: Recorded growth AUC for CC(C)C1(C)N=C(c2ncccc2C(=O)O)NC1=O (stereo not drawn) , please?
Completion: 0.993

Prompt: Tell me the measured growth AUC of O=C(O)c1nc(Cl)ccc1Cl , please.
Completion: 0.995

Prompt: Query (compound): CCCCc1c(C)nc(N(C)C)[nH]c1=O ; field requested: growth AUC
Completion: 0.976

Prompt: Could you share which growth AUC value was measured for O=C1CCc2cccc3c2N1CC3 ?
Completion: 1

Prompt: Give its growth AUC value. Item: CNC(=O)O/N=C(\SC)C(=O)N(C)C
Completion: 0.985

Prompt: Which growth AUC is reported for this compound? O=C(Cc1ccccc1)N/C(=N\OCC1CC1)c1c(C(F)(F)F)ccc(F)c1F
Completion: 0.983

Prompt: State the recorded growth AUC for this entry: CN(C)C(CSS(=O)(=O)[O-])CSS(=O)(=O)[O-].[Na+].[Na+]
Completion: 0.983

Prompt: growth AUC for COC(=O)Nc1cccc(OC(=O)Nc2cccc(C)c2)c1 ?
Completion: 1

Prompt: Endpoint output: growth AUC of CCOC(=O)C(SP(=S)(OC)OC)c1ccccc1 (stereo not drawn) . Value?
Completion: 0.991

Prompt: Record request: growth AUC value, item COc1nc(C)nc(NC(=O)NS(=O)(=O)c2ccccc2CCC(F)(F)F)n1
Completion: 0.997

Prompt: Give its growth AUC value. Item: O=C1C2(Cl)C3(Cl)C4(Cl)C(Cl)(Cl)C5(Cl)C3(Cl)C1(Cl)C5(Cl)C24Cl (stereo not drawn)
Completion: 0.98

Prompt: growth AUC lookup needed for CCOP(=O)(OCC)O/C(=C\Cl)c1ccc(Cl)cc1Cl , thanks.
Completion: 0.984

Prompt: # get_value(readout='growth AUC', item= OC(Cn1cncn1)(c1ccc(F)cc1)c1ccccc1F (stereo not drawn) )
Completion: 1.04

Prompt: Quick one: growth AUC of O=C(O)C(F)(F)C(F)(F)C(F)(F)C(F)(F)C(F)(F)C(F)(F)F ?
Completion: 0.998
